TARGET_SYSTEM: human β‐FXIIa (Homo sapiens, UniProt P00748)
Sequence (P00748 373-615 limits assumed, other chains not shown): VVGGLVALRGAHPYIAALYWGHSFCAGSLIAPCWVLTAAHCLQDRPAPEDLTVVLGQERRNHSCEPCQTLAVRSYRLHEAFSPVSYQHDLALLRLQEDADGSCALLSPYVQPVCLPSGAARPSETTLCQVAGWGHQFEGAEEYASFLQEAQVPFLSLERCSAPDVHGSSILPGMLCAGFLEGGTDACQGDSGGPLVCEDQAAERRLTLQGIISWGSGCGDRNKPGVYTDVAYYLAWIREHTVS
ASSAY_METRIC: log10 of IC50 (log10 of the value in nM)
Annotation: log10 of IC50, nM basis.

INSERT INTO results (molecule, assay_metric, quantitative_readout) VALUES
  ('Nc1nc(-c2nccc3ccccc23)nn1C(=O)c1ccccc1 [41 a]', 'log10 of IC50', 2.37);

Asked: So what does the record say about log10 of IC50 for Nc1nc(-c2cnc3ccccc3n2)nn1C(=O)[C@H]1CCCc2ccccc21 [39 a] ?
Given back: 1.52

Asked: Recorded log10 of IC50 of Nc1nc(-c2ccc3ccccc3n2)nn1C(=O)c1cccc2ccccc12 [40 b] , please.
Given back: 0.90

Asked: Fill in the blank: the reported log10 of IC50 of Cc1nc2ccccc2nc1-c1nc(N)n(C(=O)[C@H]2CCCc3ccccc32)n1 [33 h] is ____.
Given back: 2.09

Asked: I am curious: what log10 of IC50 value has been reported for Cc1cccc(-c2nc(N)n(C(=O)[C@H]3CCCc4ccccc43)n2)n1 [33 b] ?
Given back: 2.33

Asked: Return reported log10 of IC50; argument: Nc1nc(-c2cnccn2)nn1C(=O)Cc1ccccc1I [32 c]
Given back: 1.81

* * *

human Factor Xa (Homo sapiens, UniProt P00742) data, read-out IC50
Sequence (P00742 235-488 limits assumed): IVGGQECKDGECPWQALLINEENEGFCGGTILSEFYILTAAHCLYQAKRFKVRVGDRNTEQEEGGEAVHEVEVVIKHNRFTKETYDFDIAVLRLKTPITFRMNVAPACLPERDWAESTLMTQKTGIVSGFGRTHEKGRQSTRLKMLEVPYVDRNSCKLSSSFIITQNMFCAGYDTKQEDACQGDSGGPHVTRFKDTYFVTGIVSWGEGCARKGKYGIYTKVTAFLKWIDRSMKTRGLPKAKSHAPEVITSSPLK
Sequence (P00742 41-179 limits assumed): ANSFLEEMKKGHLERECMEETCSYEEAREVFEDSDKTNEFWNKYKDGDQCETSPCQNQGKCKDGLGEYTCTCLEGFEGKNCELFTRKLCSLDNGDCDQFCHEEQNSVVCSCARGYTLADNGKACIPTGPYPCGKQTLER

INSERT INTO results (compound, target_system, assay_metric, result) VALUES
  ('Nc1nc(-c2cnc3ccccc3n2)nn1C(=O)c1cccc2ccccc12 [39 b]', 'human Factor Xa (Homo sapiens, UniProt P00742)', 'IC50', '> 5 µM'),
  ('Cc1nc(-c2cccs2)ccc1-c1nc(N)n(C(=O)Cc2ccccc2I)n1 [32 d]', 'human Factor Xa (Homo sapiens, UniProt P00742)', 'IC50', '> 5 µM'),
  ('Nc1nc(-c2cnccn2)nn1C(=O)Cc1ccccc1I [32 c]', 'human Factor Xa (Homo sapiens, UniProt P00742)', 'IC50', '> 5 µM'),
  ('Nc1nc(-c2ccccc2C(=O)N2CCCCC2)nn1C(=O)[C@H]1CCCc2ccccc21 [33 j]', 'human Factor Xa (Homo sapiens, UniProt P00742)', 'IC50', '> 5 µM'),
  ('Nc1nc(-c2nccc3ccccc23)nn1C(=O)c1ccc2ccccc2c1 [41 c]', 'human Factor Xa (Homo sapiens, UniProt P00742)', 'IC50', '> 5 µM');

Asked: Consider the compound shown here: Cc1nc2ccccc2nc1-c1nc(N)n(C(=O)[C@H]2CCCc3ccccc32)n1 [33 h] What is its recorded IC50?
Given back: > 5 µM

Asked: # IC50 lookup, item Nc1nc(-c2nccc3ccccc23)nn1C(=O)c1ccccc1 [41 a]
Given back: > 5 µM

Asked: For the compound shown here, Cc1cccc(-c2nc(N)n(C(=O)[C@H]3CCCc4ccccc43)n2)n1 [33 b] , give the reported IC50.
Given back: > 5 µM

Asked: I am curious: what IC50 value has been reported for Cc1cccc(-c2nc(N)n(C(=O)Cc3ccccc3I)n2)n1 [32 b] ?
Given back: > 5 µM

Asked: Record request: IC50 value, item Nc1nc(-c2ccc3ccccc3n2)nn1C(=O)[C@H]1CCCc2ccccc21 [33 g]
Given back: > 5 µM

* * *

TARGET_SYSTEM: thrombin (FIIa) (Homo sapiens)
EXPERIMENTAL_DETAILS: Medium‐throughput screening
Format: biochemical
PARTICULARS: read-out: Inhibition @100 nM [in MTS] FIIa
Give met when the value for inhibition at 0.1 µM is at least 2%. Give not met when it is less.

Example cases with answers are listed next.
INSERT INTO measurements (compound, target_system, category) VALUES
  ('CC(C)(C)c1nc(N)n(C(=O)[C@H]2CCCc3ccccc32)n1 [33 e]', 'thrombin (FIIa) (Homo sapiens)', 'not met'),
  ('Nc1nc(-c2ccc3ccccc3n2)nn1C(=O)[C@H]1CCCc2ccccc21 [33 g]', 'thrombin (FIIa) (Homo sapiens)', 'met');

Turning now to a further compound:
Asked: hey, is inhibition at 0.1 µM for this one >= 2%? Nc1nc(-c2cnccn2)nn1C(=O)Cc1ccccc1I [32 c]
Given back: met

* * *

TARGET_SYSTEM: human β‐FXIIa (Homo sapiens)
As shown below, each of these compounds has a reported pIC50 value.
Answer as the number alone; pIC50 is minus log10 of concentration in mol/L.

The cases that follow already have their pIC50 on record.
INSERT INTO measurements (chemical_string, target_system, quantitative_readout) VALUES
  ('Cc1nc(-c2cccs2)ccc1-c1nc(N)n(C(=O)[C@H]2CCCc3ccccc32)n1', 'human β‐FXIIa (Homo sapiens)', 5.95),
  ('Nc1nc(-c2ccc3ccccc3n2)nn1C(=O)[C@H]1CCCc2ccccc21', 'human β‐FXIIa (Homo sapiens)', 7.48),
  ('Nc1nc(-c2cnccn2)nn1C(=O)[C@H]1CCCc2ccccc21', 'human β‐FXIIa (Homo sapiens)', 6.97);

Asked: Could you share what pIC50 was measured for `Nc1nc(-c2nccc3ccccc23)nn1C(=O)[C@H]1CCCc2ccccc21` , tested on human β‐FXIIa (Homo sapiens)?
Given back: 6.26

Asked: Find the measured pIC50: item `Cc1nc(-c2cccs2)ccc1-c1nc(N)n(C(=O)Cc2ccccc2I)n1` , target or system human β‐FXIIa (Homo sapiens).
Given back: 6.15

Asked: Write down the reported pIC50 of `Nc1nc(-c2ccc3ccccc3n2)nn1C(=O)c1ccccc1` , test system: human β‐FXIIa (Homo sapiens).
Given back: 7.89

Asked: Could you share what pIC50 was measured for `Nc1nc(-c2ccccc2C(=O)N2CCCCC2)nn1C(=O)[C@H]1CCCc2ccccc21` , tested on human β‐FXIIa (Homo sapiens)?
Given back: 5.82

Asked: Form: Entry = `Cc1cccc(-c2nc(N)n(C(=O)Cc3ccccc3I)n2)n1` | System = human β‐FXIIa (Homo sapiens) | pIC50 = ____
Given back: 7.14

* * *

Overview of recorded log10(IC50) for various compounds
TARGET_SYSTEM: human α‐thrombin (factor IIa) (Homo sapiens, UniProt P00734)
Please keep in mind that the values are log10 of IC50 expressed in nM.

Examples with answers:
INSERT INTO assay_data (compound, assay_metric, quantitative_readout) VALUES
  ('Nc1nc(-c2ccc3ccccc3n2)nn1C(=O)c1ccccc1 [40 a]', 'log10(IC50)', 2.09),
  ('Nc1nc(-c2ccc3ccccc3n2)nn1C(=O)c1cccc2ccccc12 [40 b]', 'log10(IC50)', 2.54),
  ('Nc1nc(-c2nccc3ccccc23)nn1C(=O)[C@H]1CCCc2ccccc21 [33 i]', 'log10(IC50)', 1.58);

Asked: Value wanted: log10(IC50) (human α‐thrombin (factor IIa) (Homo sapiens, UniProt P00734)) of entry Nc1nc(-c2ccccc2C(=O)N2CCCCC2)nn1C(=O)[C@H]1CCCc2ccccc21 [33 j]
Given back: 3.76

Asked: Under human α‐thrombin (factor IIa) (Homo sapiens, UniProt P00734): log10(IC50) value of Nc1nc(-c2nccc3ccccc23)nn1C(=O)c1ccccc1 [41 a] ?
Given back: 1.80

Asked: Form: Entry = Cc1cccc(-c2nc(N)n(C(=O)[C@H]3CCCc4ccccc43)n2)n1 [33 b] | System = human α‐thrombin (factor IIa) (Homo sapiens, UniProt P00734) | log10(IC50) = ____
Given back: 2.91

Asked: Request: log10(IC50), test system human α‐thrombin (factor IIa) (Homo sapiens, UniProt P00734), entry Nc1nc(-c2cnccn2)nn1C(=O)[C@H]1CCCc2ccccc21 [33 c]
Given back: 2.16

Asked: Recall the recorded log10(IC50) for Nc1nc(-c2ccc3ccccc3n2)nn1C(=O)[C@H]1CCCc2ccccc21 [33 g] with human α‐thrombin (factor IIa) (Homo sapiens, UniProt P00734) and state it.
Given back: 3.00

Asked: Reported log10(IC50) for human α‐thrombin (factor IIa) (Homo sapiens, UniProt P00734), given Nc1nc(-c2cnccn2)nn1C(=O)Cc1ccccc1I [32 c] ?
Given back: 3.23

* * *

Each entry below carries its recorded inhibition at 0.1 µM.
TARGET_SYSTEM: FXIIa (Homo sapiens, UniProt P00748)
Sequence (P00748 373-615 limits assumed, other chains not shown): as the sequence (P00748 373-615 limits assumed, other chains not shown) above
EXPERIMENTAL_DETAILS: Medium‐throughput screening
Assay type: biochemical
PARTICULARS: read-out: Inhibition @100 nM [in MTS] FXIIa
Give the value in % but do not write % after it.

INSERT INTO results (compound, quantitative_readout) VALUES
  ('Nc1nc(-c2ccccc2C(=O)N2CCCCC2)nn1C(=O)[C@H]1CCCc2ccccc21', 8),
  ('[H]/N=C(/N)c1ccc(NCc2nc3cc(C(=O)N(CCC(=O)O)c4ccccn4)ccc3n2C)cc1 [Dabigatran, reference compound]', -1),
  ('Nc1nc(-c2ccccn2)nn1C(=O)Cc1ccccc1I', 54),
  ('CC(C)(C)c1nc(N)n(C(=O)[C@H]2CCCc3ccccc32)n1', 0),
  ('Nc1nc(-c2ccccn2)nn1C(=O)[C@H]1CCCc2ccccc21', 73);

Asked: Would you kindly share the measured inhibition at 0.1 µM for `Nc1nc(-c2ccc3ccccc3n2)nn1C(=O)[C@H]1CCCc2ccccc21` ?
Given back: 94

Asked: Report inhibition at 0.1 µM for `Cc1nc2ccccc2nc1-c1nc(N)n(C(=O)[C@H]2CCCc3ccccc32)n1` please.
Given back: 81

Asked: Please report the recorded inhibition at 0.1 µM for O=C(NC[C@H]1CN(c2ccc(N3CCOCC3=O)cc2)C(=O)O1)c1ccc(Cl)s1 [Rivaroxaban, reference compound] .
Given back: -1

Asked: Name the reported inhibition at 0.1 µM value associated with the compound `Cc1cccc(-c2nc(N)n(C(=O)Cc3ccccc3I)n2)n1`
Given back: 54

Asked: May I ask what inhibition at 0.1 µM has been recorded for `Cc1nc(-c2cccs2)ccc1-c1nc(N)n(C(=O)Cc2ccccc2I)n1` ?
Given back: 8

Asked: If you can, please state the reported inhibition at 0.1 µM value of `Cc1cccc(-c2nc(N)n(C(=O)[C@H]3CCCc4ccccc43)n2)n1` .
Given back: 36

Asked: Please give the measured inhibition at 0.1 µM for this compound: `CC(C)(C)c1nc(N)n(C(=O)Cc2ccccc2I)n1`
Given back: 3
